Examples of molecules with documented melting point follow.

Q: Look up melting point of CCOC(=O)C1=C(C)NC(N)=C(C(=O)OC(C)C)C1c1cccc([N+](=O)[O-])c1 (stereo not given) and report it.
Ans: 175 to 176 °C

Q: Look up melting point of CNS(=O)(=O)c1cc(C(=O)NCC2CCCN2CC2CC2)c(OC)cc1N (stereo not given) and report it.
Ans: 173 to 174 °C

Q: Look up melting point of OCCOc1ccc2cccnc2c1 and report it.
Ans: 93 to 95 °C

Q: Look up melting point of ClC(Cl)(Cl)C1NCCO1 (stereo not given) and report it.
Ans: 73 °C

====

Examples of compounds with documented melting point follow.

> print(dat)
                                   compound  readout.value
1  C[Si](C)(C)c1ccc(F)c([Si](C)(C)C)c1C(=O)N1CCCC1   97 to 100 °C

Q: Look up melting point of COC(=O)c1nc(N=C=S)ccc1Oc1nc(OC)cc(OC)n1 and report it.
Ans: 116 to 117 °C

Q: Look up melting point of O=Cc1ccc2c(c1)CC(Cc1ccccc1)O2 (configuration not stated) and report it.
Ans: 77 to 80 °C

Q: Look up melting point of CCCc1nc2cnc3cc(OCC(=O)N4CCOCC4)ccc3c2s1 and report it.
Ans: 133 to 136 °C

====

Examples of molecules with documented melting point follow.

# annotated cases, reported melting point shown
> print(dat)
                                   molecule  readout.value
1       O=C(c1coc(-c2ccc(CCl)cc2)n1)N1CCCC1  126 to 128 °C
2   O=C(O)c1cc(=O)c2cc3[nH]c(=O)oc3cc2[nH]1       > 300 °C
3  CC(=O)c1cc2c(s1)CCCC1CC(=O)N(c3ccc(Cl)cc3)N=C21 (stereo not given)  128 to 130 °C

Q: Look up melting point of CC[C@H]1CC[C@H](CCc2ccc(-c3ccc(C#N)cc3)c(F)c2)CC1 and report it.
Ans: 65.4 °C

Q: Look up melting point of CCCC(=O)Oc1ccc(C(=O)Nc2ccc3cc(CN4CCCC4)cnc3c2C)cc1 and report it.
Ans: 156 to 158 °C

Q: Look up melting point of CS(=O)c1ccc(-c2nn(Cc3ccc(Cl)cc3Cl)c(=O)cc2-c2ccc(Cl)cc2)cc1 (stereo not given) and report it.
Ans: 236 to 237 °C

====

measurement_type: melting point

# annotated cases, reported melting point shown
> print(dat)
                                   compound  readout.value
1  CC(C)OC(=O)c1cc(-n2c(Cl)nc(C(F)(F)F)cc2=O)c(F)cc1Cl    72 to 75 °C
2  CC(C(=O)O)c1ccc2c(c1)C(=O)Cc1cc(Cl)ccc1S2 (stereo not drawn)  195 to 196 °C

Q: Look up melting point of CCCc1cc(C(=O)CCCC(=O)O)ccc1OC and report it.
Ans: 105 to 106 °C

Q: Look up melting point of O=C(O)c1ccc(C(F)F)o1 and report it.
Ans: 112 to 113 °C

Q: Look up melting point of COC(=O)c1cc(-c2ccc(F)c(C)c2)nn(Cc2ccccc2)c1=O and report it.
Ans: 109 to 110 °C

Q: Look up melting point of O=S(=O)(C(=CNc1ccc(Br)cn1)S(=O)(=O)c1ccccc1)c1ccccc1 and report it.
Ans: 177 to 179 °C

Q: Look up melting point of COc1ccc2cc([C@H](C)C(=O)OCC(=O)COC(=O)c3ccc(CO[N+](=O)[O-])cc3)ccc2c1 and report it.
Ans: 105 to 107 °C

Q: Look up melting point of O=S1NC(Cc2cc3ccccc3s2)=NO1 (stereo not drawn) and report it.
Ans: 127 to 129 °C

Q: Look up melting point of O=C(O)CSCCCCc1cccc2cncn12 and report it.
Ans: 124 to 126 °C

====

Examples of compounds with documented melting point follow.

# annotated cases, reported melting point shown
> print(dat)
                                   compound  measurement.type  readout.value
1         COc1ccc2c(c1OCc1ccccc1)CCN(C=O)C2     melting point         118 °C
2  CCCC[C@H](NC(=O)[C@H](CC(C)C)NC(=O)c1coc2ccccc12)C(=O)CSCc1ccco1     melting point  113 to 116 °C
3  O=C(N[C@H]1CC[C@H](CCN2CCN(c3nccc4c3CCO4)CC2)CC1)c1ccc(C(F)(F)F)cc1     melting point         227 °C
4  CC(=O)C(O)C1OC(Sc2ncc(Cl)cn2)C(O)(C(C)=O)C(O)(C(C)=O)C1(O)C(C)=O (stereo not given)     melting point         172 °C
5  NC(=O)N1CCC(c2nn(-c3ccc(F)cc3)c3ccccc23)CC1     melting point  145 to 147 °C

Q: Look up melting point of CCCc1oc(C)cc1C(=O)O and report it.
Ans: 91 to 102 °C

Q: Look up melting point of COCOc1c(OC)cc(C(=O)C(=O)O)c2cccc(Cc3ccccc3)c12 and report it.
Ans: 75 to 79 °C

Q: Look up melting point of CCc1nnc(-c2ccc(OC)cc2)n1-c1ccc(Cl)cc1 and report it.
Ans: 162 °C

Q: Look up melting point of CCCCc1ccc(NCC)c(C(=O)C(=O)OC(=O)C(=O)c2cc(CCCC)ccc2NCC)c1 and report it.
Ans: 130 to 132 °C

Q: Look up melting point of CC(C)(C)OC(=O)NC1CCCCCC=CC2CC2(C(=O)NS(=O)(=O)C2CC2)NC(=O)C2CC(OC(=O)c3ccc4c(c3)OCO4)CN2C1=O (stereo not given) and report it.
Ans: 153 to 155 °C

Q: Look up melting point of Cc1oc(-c2ccc(C(F)(F)F)cc2)nc1CO and report it.
Ans: 98 to 99 °C

Q: Look up melting point of COc1nc(C)cnc1NS(=O)(=O)c1cccnc1-c1ccc(I)cc1 and report it.
Ans: 180 to 183 °C

====

Examples of compounds with documented melting point follow.

# annotated cases, reported melting point shown
> print(dat)
                                   compound  readout.value
1             O=[N+]([O-])C(CO)(CO)c1ccccc1  96 to 97.5 °C
2  COc1ccc(N=Nc2ccc(O)c(C(=O)Nc3ccc4[nH]nnc4c3)c2)cc1  275 to 276 °C
3  Cc1oc(-c2ccccc2)nc1COc1cc(COc2ncccc2CO)on1  136 to 137 °C
4  COCc1nsc2ccc(-n3c(=O)cc(C(F)(F)F)n(C)c3=O)cc12  161 to 163 °C

Q: Look up melting point of CCOC(=O)/C=C/c1cn(Cc2ccc3cc(OCc4ccccc4)ccc3c2)cc1-c1ccccc1 and report it.
Ans: 119 to 120 °C

Q: Look up melting point of CC(=CCCC(C)C1CCC2(C)C3=CCC4C(C)(CCC5(OCCO5)C4(C)C)C3=CCC12C)CO (stereo not given) and report it.
Ans: 165 to 168 °C

Q: Look up melting point of O=C(c1ccccc1)c1nsc(N2CCN(c3ccccn3)CC2)n1 and report it.
Ans: 110 to 111 °C

Q: Look up melting point of COC(=O)c1c(S(N)(=O)=O)c(C)nn1-c1ccccn1 and report it.
Ans: 170 to 172 °C

Q: Look up melting point of O=C(O)c1nnc(-c2ccc(Cl)cc2)o1 and report it.
Ans: 277 to 284 °C

Q: Look up melting point of O=c1c(Nc2ccc(Cl)cc2)nc2ccccc2n1-c1ccc(Cl)cc1 and report it.
Ans: 258 to 260 °C

====

measurement_type: melting point

> print(dat)
                                   compound  readout.value
1  COC(=O)CCCC#Cc1cc(Cl)ccc1NS(=O)(=O)c1cccc(OC)c1    71 to 76 °C
2                 Cn1cc2c(n1)c(N)nc1ccccc12  218 to 219 °C
3       COc1cc(Cc2cnc(N)nc2N)c2cc(C)oc2c1OC  209 to 212 °C
4  O=C(N[C@H](Cc1ccc(C(F)(F)F)cc1)[C@@H](O)c1ccc(F)c(F)c1)c1ccc(F)c2ccccc12 (racemic)  197 to 198 °C

Q: Look up melting point of O=c1c2ccccc2cnn1Cc1ccccc1 and report it.
Ans: 104 to 105 °C

Q: Look up melting point of CCCCCCCCCCCCCCCCOc1cc(OC)c([N+](=O)[O-])cc1OC and report it.
Ans: 71 °C

Q: Look up melting point of COc1ccc(C(CCCCC(=O)NO)C2=C(C)C(=O)c3ccccc3C2=O)cc1 (centres undefined) and report it.
Ans: 129 to 130 °C

Q: Look up melting point of COc1ccc(C2CC(=O)c3c(C)coc3C2)cc1 (centres undefined) and report it.
Ans: 82 to 83 °C

Q: Look up melting point of O=C(OI(OC(=O)C(F)(F)F)C(F)(F)C(F)(F)C(F)(F)C(F)(F)C(F)(F)C(F)(F)C(F)(F)C(F)(F)F)C(F)(F)F and report it.
Ans: 70 to 74 °C
